Target: T1, Human CD19-his protein (human, UniProt P15391 20-291)
T1 construct: bought protein; also called recombinant human CD19-His; CD19 full-length protein; not shown: His tag
T1 sequence (looked up): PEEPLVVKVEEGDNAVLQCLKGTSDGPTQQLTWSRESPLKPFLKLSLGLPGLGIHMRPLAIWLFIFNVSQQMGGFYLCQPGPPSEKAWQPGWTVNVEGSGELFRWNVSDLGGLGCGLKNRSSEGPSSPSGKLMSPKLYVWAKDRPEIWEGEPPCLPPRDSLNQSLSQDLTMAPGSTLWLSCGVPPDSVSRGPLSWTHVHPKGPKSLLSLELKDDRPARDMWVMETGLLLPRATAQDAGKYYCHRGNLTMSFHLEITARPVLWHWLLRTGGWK
Assay: SPR Biacore, Ab captured on Protein A, CD19-His analyte
MEASURED ENDPOINT: Kd (nM)
Enter your answer as a number in nM; do not include the unit.

F4.15.9 (antibody, human IgG1, V domains shown, human-murine chimeric antibody, human IgG1 constant) VH: QVQLQQSGPELVKPGASVKISCKASGYAFSSSWMNWLKQRPGQGLEWIGRIYPGDGDTNYNGKFKGKATLTADESSSTAYMQLSSLTSVDSAVYFCARGITTIITIAWFASWGQGTLVTVSA VL: QIVLSQSPTILSASPGEKVTMTCRASSSVSYMHWYQQKPGSSPKPWIYATSNLASGVPPRFSGSGSGTSYSLTISRVGAEDAATYYCQQWSSDPWTFGGGTKLEIK : 2.72
F4.37.6 (antibody, human IgG1, V domains shown, human-murine chimeric antibody, human IgG1 constant) VH: QVQLQQSGAELARPGASVKLSCKASGYTFTSFWMQWLKQRPGQGLEWIGTIYPGDGDTRYTQKFKGKATLTADKSSNTAYMQLSSLASEDSAVYYCARGALSNYGGFAYWGQGTLVTVSA VL: NIVLTQSPASLAVSLGQRATISCRASESVDSYGHSFMHWYQQKPGQPPKLLIYLASNLESGVPARFSGSGSRTDFTLTIDPVEADDAATYYCQQNNEDPWTFGGGTKLEIK : 9.11
F4.152.7 (antibody, human IgG1, V domains shown, human-murine chimeric antibody, human IgG1 constant) VH: QVQLQQPGAELVKPGASVKLSCKASGYTFTSYWMHWVKQRPGQGLEWIGEIDPSDSYTNYNQKFKGKATLTADKSSSTAYMQLSGLTSEDSAVYHCARGGDYDGYYVMDYWGQGTSVTVSS VL: EIVLTQSPTTMAASPGEKITITCSASSSISSNYLHWYQQKPGFSPKLLIYRTSNLASGVPARFSGSGSGTSYSLTIGTMEADDVATYYCQQGSYIPRIFTFGSGTKLEIK : 0.337
F5.8.6 (antibody, human IgG1, V domains shown, human-murine chimeric antibody, human IgG1 constant) VH: QVQLHQPGAELVMPGASVTLSCKASGYTFTSYWMHWVKQRPGQGLEWIGEIDPSDSYTTYDQKFKGKATLTVDKFSSTAYMQFSSLTSEDSAVYYCARLTGNHLDYWGQGTTLTVSS VL: DIVMTQSHKFMSSSVGDRVSITCKASQDVSPAVAWYQQKPGQSPKLLIYSTSYRNTGVPDRFTGSGSGTDFTFTISSVQAEDLAVYYCQQHYSIPLTFGAGTKLELK : 5.98
F3.3.10 (antibody, human IgG1, V domains shown, human-murine chimeric antibody, human IgG1 constant) VH: DVQLQESGPGLAKLSQSLSLTCSVTGYSITSGYYWNWIRQFPGNKLEWMGHISYDGNNNYNPSLKNRISITRDTSKNQFFLKLNSVTTEDTATYYCARENYSNYYFDYWGQGTTLTVSS VL: DIVLTQSPASLAVSLGQRATISCRASQSVSKSSYTYIHWYQQKPGQPPKLLIKYASILQSGVPARFSGSGSGTDFTLNFHPVEEEDTATYYCQHSWEIPYTFGGGTKLEIK : 8.47

[Q] Kindly indicate its recorded Kd. Item: F3.124.7 (antibody, human IgG1, V domains shown, human-murine chimeric antibody, human IgG1 constant) VH: EVQLQQSGPVLVKPGASVKMSCKASGYTFTDYYMNWVKQRHGKSLEWIGISNPYNGGTSYNQKFKDKATLTVDKSSSTAYMELNSLTSEDSAVYYCAREGGTAQPTSGMDYWGQGTSVTVSS VL: NIMMTQSPSSLAVSAGEKVTMSCKSSQSVLYSSNQKNYLAWYQQKPGQSPKLLIYWASTRESGVPDRFTGSGSGTDFTLTISSVQPEDPAVYYCHQYRSSYTFGGGTKLEIK
[A] 1.99

[Q] Give me measured Kd, please, for this binder: F6.2.9 (antibody, human IgG1, V domains shown, human-murine chimeric antibody, human IgG1 constant) VH: QVQLQQSGAELVKPGASVKISCKASGYAFSSYWMNWVKQRPGKGLEWIGQIYPGDGDTNYNGKFKGKATLTADKSSSTGYMQLSSLTSEDSAVYFCARSRITSVVDWYFDVWGTGTTVTVSS VL: QIVLSQSPAILSASPGEKVTMTCRASSSVSYMHWYQQKPGSSPKPWIYATSNLASGVPARFSGSGSGTSYSLTISRVEAEDAATYYCQQWSSNPPTFGAGTKLELK
[A] 21.7

[Q] Read the entry F4.21.2 (antibody, human IgG1, V domains shown, human-murine chimeric antibody, human IgG1 constant) VH: QVQLKQSGPGLVQPSQSLSITCTVSGFSLSTYGVHWVRQSPGRGLEWLGVIWIGGTTDYNAAFISRLTISKDNSRGQVFFKMDSLQANDTAIYYCARKGYYKYDGGYYYAMDYWGQGTSVTVSS VL: DIQMTQSSSYLSVSLGGRVTITCKASDHINNWLAWYQQKPGNAPWLLISGATSLETGVPSRFSGSGSGKDYTLSISSLQTEDVATYYCQQYWSTPLTFGAGTKLELK and write its reported Kd.
[A] 0.904

[Q] Give me measured Kd, please, for this binder: F2.15.26 (antibody, human IgG1, V domains shown, human-murine chimeric antibody, human IgG1 constant) VH: QVQLKESGPGLVAPSQSLSITCTVSGFSLTDYGVSWIRQSPGKGLEWLGVIWGSGDTYYNSVLESRLSINKDNSKNQVFLKMNSLQTDDAAMYFCAKHSYYGGSFAMDYWGQGTSVTVSS VL: DIQMTQTTSSLSASLGDRVTISCRASQDISNYLNWYQQKPDGTVKLLIYYTSRLHSGVPSRFSGSGSGTDYSLTISNLEQEDIATYFCQQGKTLPWTFGGGTKLEIK
[A] 0.839

[Q] Supply recorded Kd for F4.272.13 (antibody, human IgG1, V domains shown, human-murine chimeric antibody, human IgG1 constant) VH: QVQLKESGPGLVAPSQSLSITCTVSGFSLTDYGVSWIRQPPGKGLEWLGVIWGSETTFYNSALKSRLSISKDNSKSQLFLQMNSLQADDTAIYYCAKHHYYGGSFSMDYWGQGTSVTVSS VL: DIQMTQTTSSLSASLGDRVTISCRASQDINNYLNWYQQKPDGTVKFLIYYTSRLHSGVPSRFSGSGSGTDYSLTISDLEQEDIATYFCQQGNTLPYTFGGGTKLEIK here.
[A] 0.294
